Reference for the values: paper PMC8440931

Target: T1, mtSSB (wild type) (UniProt Q04837 17-148)
T1 sequence: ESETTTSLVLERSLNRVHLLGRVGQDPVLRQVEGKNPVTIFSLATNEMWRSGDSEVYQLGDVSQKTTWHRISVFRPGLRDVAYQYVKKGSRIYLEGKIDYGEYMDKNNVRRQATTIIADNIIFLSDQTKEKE
Test: BLI; 4 mM Mg2+; equilibrium responses of mass transfer fit, non-1:1 binding; BLI: 50 mM Tris-HCl pH 8.0, 10 mM KCl, 4 mM MgCl2, 0.4 mg/ml BSA, 10 mM DTT, 30 C
Settings: protein: recombinant; chain copies: 4; label: 5'-biotin (immobilized on streptavidin sensor); single strand
Measure: pKd
Worth noting: pKd values are minus log10 of concentrations stated in mol/L.

For the binder shown here, ATTATGAATTAATTTAATAATTTTTTTTTTTTTTTTTTTT (ssDNA, 5'-biotin) [BTN-ssDNA 40-mer] , give the reported pKd.
8.64
